system.tested: rhCRTh2 (Homo sapiens)
Sequence (Q9Y5Y4 whole entry): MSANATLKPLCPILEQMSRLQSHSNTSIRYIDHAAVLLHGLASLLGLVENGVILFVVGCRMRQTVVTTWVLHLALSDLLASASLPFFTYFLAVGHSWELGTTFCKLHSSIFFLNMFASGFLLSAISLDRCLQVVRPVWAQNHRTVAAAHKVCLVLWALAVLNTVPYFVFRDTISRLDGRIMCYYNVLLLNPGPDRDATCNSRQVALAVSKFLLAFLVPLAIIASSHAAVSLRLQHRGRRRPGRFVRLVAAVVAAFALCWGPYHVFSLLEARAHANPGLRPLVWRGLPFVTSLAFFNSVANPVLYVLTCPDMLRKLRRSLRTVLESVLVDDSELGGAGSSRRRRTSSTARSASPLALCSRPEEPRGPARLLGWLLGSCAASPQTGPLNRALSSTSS

{"structure.string": "Cc1c(Sc2ccc(-c3ccccc3)cc2)c2cc(F)ccc2n1CC(=O)O", "unit.label": "nM", "IC50": 20}

Source of measurements: patent US7741360B2
